Origin of measurements: PubChem BioAssay (EPA / NIEHS)

Read-out: Bcl-2 (BAD) gene, BAD (gene 572)
ASSAY_NAME: LTEA_HepaRG_BAD: Life Technologies and Expression Analysis (LTEA) Assay for Bcl-2 (BAD) gene using HepaRG (AID 2283469)
DETAILS: mRNA level, 48 h; actives raise or lower the signal
Active and inactive are the calls of the source. How the source made its calls: active means hit-call score of the fitted dose curve at least 0.9, where 1 is the maximum; inactive means score below 0.9.
QUANTITY_NAME: outcome

| CHEMICAL_SMILES | REPORTED_RESULT |
| --- | --- |
| Oc1cc(Cl)ccc1Oc1ccc(Cl)cc1Cl | inactive |
| O=C(Nc1ccccc1)Nc1cnns1 | inactive |
| COc1nn(CSP(=S)(OC)OC)c(=O)s1 | inactive |
| N#Cc1c(Cl)c(Cl)c(Cl)c(C#N)c1Cl | inactive |
| Clc1ccccc1-c1nnc(-c2ccccc2Cl)nn1 | inactive |

Your task in this section: give outcome for each listed record.
1. O=S(=O)(O)C(F)(F)C(F)(F)C(F)(F)C(F)(F)C(F)(F)C(F)(F)C(F)(F)C(F)(F)F
2. CN1CSC(=S)N(C)C1

1. inactive
2. inactive
